Cited source for all entries: patent US20230051715A1

Reported EC50 by item:
# target_desc: T1, full-length human C1s (produced in house) (human, UniProt P09871 16-688)
# T1 construct: Called full-length; Partly auto-cleaved at R422-I423 on blots; also called HuC1s; Hu C1s
# T1 sequence: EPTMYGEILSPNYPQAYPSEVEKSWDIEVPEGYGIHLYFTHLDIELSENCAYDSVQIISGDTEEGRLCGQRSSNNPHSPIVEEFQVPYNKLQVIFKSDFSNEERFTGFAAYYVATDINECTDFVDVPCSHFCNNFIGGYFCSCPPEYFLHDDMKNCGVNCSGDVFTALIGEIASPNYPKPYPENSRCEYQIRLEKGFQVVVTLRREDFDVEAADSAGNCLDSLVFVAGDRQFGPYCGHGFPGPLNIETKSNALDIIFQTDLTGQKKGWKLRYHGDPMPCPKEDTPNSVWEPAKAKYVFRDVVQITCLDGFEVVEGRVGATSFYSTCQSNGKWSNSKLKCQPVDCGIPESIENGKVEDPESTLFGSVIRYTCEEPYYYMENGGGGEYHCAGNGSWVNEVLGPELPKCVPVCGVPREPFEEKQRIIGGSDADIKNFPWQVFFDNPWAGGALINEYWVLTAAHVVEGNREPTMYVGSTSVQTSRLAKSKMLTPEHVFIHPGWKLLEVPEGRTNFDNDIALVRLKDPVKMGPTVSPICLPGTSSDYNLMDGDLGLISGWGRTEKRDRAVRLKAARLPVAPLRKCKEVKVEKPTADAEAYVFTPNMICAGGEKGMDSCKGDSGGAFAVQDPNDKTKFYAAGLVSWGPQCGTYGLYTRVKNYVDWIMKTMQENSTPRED
# experiment_description: ELISA, plate coated with 200 ng/well full-length HuC1s, OD450nm

[
  {
    "binder": "Anti-C1s antibody hz2-7(H1L2) (antibody, V domains shown, Humanized, human IgG1 / kappa; also called hz2-7(1L2)) VH: EVQLLESGGGLVQPGGSLRLSCAASGFTFSNYFMNWVRQAPGKGLEWVSEIRLKFTNYATHYADSVKGRFTISRDDSKSTLYLQMNSLRAEDTAVYYCTRDYGSRNGYFDYWGQGTLVTVSS VL: DIVMTQTPLSLPVTPGEPASISCRSSKSLLHSNGNTFLYWFLQKPGQSPQLLIYRMSNLASGVPDRFSGSGSGTDFTLKISRVEAEDVGVYYCMQHLEYPYTFGGGTKLEIKR",
    "EC50": "5 ng/mL"
  },
  {
    "binder": "Anti-C1s antibody 2-8 (antibody, V domains shown, the HC/LC entries may hold it too; also called clone 2-8) VH: EVQLQQSGAELVRPGALVKLSCKASGFNIKEYYMHWVKQRPEQGLEWIGWIDPENGDTIYDPKFQGKASITADTSSNTAYLQLSSLTSEDTAVYYCARSRLFFAYWGQGTLVTVSA VL: DIVMTQSHKFMSTSVGDRVSFTCKASQDVRTAVDWYQQKPGQSPKLLIYSASYRYTGVPDRFTGTGSGTDFTFTISSVQAEDLAVYFCQQQYTTPYTFGGGTKLEIKT",
    "EC50": "8 ng/mL"
  },
  {
    "binder": "Anti-C1s antibody 2-7 (antibody, human IgG1, kappa, V domains shown, the HC/LC entries may hold it too; also called clone 2-7) VH: EVKLEESGGGLVPPGGSMKLSCVASGFTFSNYFMNWVRQSPEKGLEWVAEIRLKFTNYATHYAESVEGRFTISRDDSKSSVYLQMNNLRAEDTGIYYCTRDYGSRNGYFDYWGQGTTLTVSS VL: DIVMTQAAPSVPVTPGESVSISCRSSKSLLHSNGNTFLYWFLQRPGQSPQLLIYRMSNLASGVPDRFSGSGSGTAFTLRVSRVEAEDVGIYYCMQHLEYPYTFGGGTKLEIKT",
    "EC50": "6 ng/mL"
  },
  {
    "binder": "Anti-C1s antibody hz2-8(H1L2) (antibody, V domains shown, Humanized, human IgG1 / kappa) VH: QVQLVQSGAEVKKPGASVKVSCKASGFNIKEYYMHWVRQAPEQGLEWMGWIDPENGDTIYAQKFQGRVTITADTSTNTAYMELSSLRSEDTAVYYCARSRLFFAYWGQGTLVTVSS VL: DIQMTQSPKSLSASVGDRVTITCRASQDVRTALDWYQQKPGQSPKLLIYSASYRYSGVPSRFSGSGSGTDFTLTISSLQPEDFATYYCQQQYTTPYTFGQGTKLEIKR",
    "EC50": "2 ng/mL"
  }
]
